tested_on: Apelin receptor (Homo sapiens) (UniProt P35414)
assay_details: potency against CXCR6 with APJ panel – cell-based, beta-arrestin, DiscoveRx, uHTS hits, dose response (AID 624129)
stated_conditions: CXCR6 beta-arrestin (DiscoveRx) antagonist cell assay, APJ, dose range 1, mean IC50 across replicates
pIC50: −log10 of the molar value.
Please note: criterion met applies when pIC50 is 5 or greater, and criterion not met applies otherwise.

Observe how each entry below is paired with its result.
[
  {
    "molecule": "C=C1CC2(OC1=O)c1ccccc1CCc1ccccc12",
    "tested_on": "Apelin receptor (Homo sapiens) (UniProt P35414)",
    "class_label": "criterion not met"
  },
  {
    "molecule": "Cc1ccc(S(=O)(=O)Nc2cccc3cccnc23)cc1",
    "tested_on": "Apelin receptor (Homo sapiens) (UniProt P35414)",
    "class_label": "criterion not met"
  }
]

Decide: pIC50 of COc1cc(/C=C/c2ccc3c(Br)cc(Br)c(O)c3n2)ccc1O >= 5?
criterion not met

Quick check, pIC50 >= 5? C/C(=N\NC(=O)Cn1c(-c2ccccn2)nc2ccccc21)c1ccccc1
criterion not met

* * *

tested_on: C-X-C chemokine receptor type 6 (Homo sapiens) (UniProt O00574)
Sequence (O00574 whole entry, looked up): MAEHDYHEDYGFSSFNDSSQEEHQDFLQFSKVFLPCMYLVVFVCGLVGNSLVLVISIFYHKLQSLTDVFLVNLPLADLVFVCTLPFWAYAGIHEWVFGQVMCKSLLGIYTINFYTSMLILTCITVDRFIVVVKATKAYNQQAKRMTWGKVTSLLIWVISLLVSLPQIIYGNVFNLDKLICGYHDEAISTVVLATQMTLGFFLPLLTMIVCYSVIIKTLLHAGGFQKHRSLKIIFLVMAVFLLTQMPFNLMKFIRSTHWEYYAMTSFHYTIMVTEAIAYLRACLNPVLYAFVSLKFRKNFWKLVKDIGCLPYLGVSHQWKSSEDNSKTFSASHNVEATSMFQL
assay_details: potency against CXCR6 with APJ panel – cell-based, beta-arrestin, DiscoveRx, uHTS hits, dose response (AID 624129)
stated_conditions: CXCR6 beta-arrestin (DiscoveRx) antagonist cell assay, CXCR6, run 1, dose range 2, at 80 µM (top of the series)
Please enter true where inhibition is greater than or equal to 50%, and false where it is lower.

Check out these entries, answers already filled in.
[
  {
    "molecule": "CCO[C@@H]1OC(C(=O)N2CCN(Cc3ccccc3)CC2)=C[C@H](c2ccc(Br)cc2)[C@H]1CCCO",
    "class_label": "true"
  },
  {
    "molecule": "COc1ccc(C(=O)/C=C/C(=O)N(CC(=O)NC2CCCCC2)Cc2cccs2)c(O)c1",
    "class_label": "false"
  }
]

Check if inhibition >= 50% (inclusive). Item: CC(C)(C)c1ccc(CN2N=Nc3ccccc3S2(=O)=O)cc1
true

State whether the measured inhibition reaches 50%, counting equality as reaching it, for O=C(Nc1nnc(-c2cccs2)o1)c1cccc(C(F)(F)F)c1
false

Can CCOc1ccc(NCC(=O)c2ccc(C)cc2)cc1 be said to have inhibition at or above 50%?
false

* * *

tested_on: Apelin receptor (Homo sapiens)
assay_details: potency against CXCR6 with APJ panel – cell-based, beta-arrestin, DiscoveRx, uHTS hits, dose response (AID 624129)
stated_conditions: CXCR6 beta-arrestin (DiscoveRx) antagonist cell assay, APJ, dose range 1
Kindly state IC50 for each of the entries shown.

[
  {
    "compound": "C=CCn1nc([N+](=O)[O-])nc1Sc1cccc2cccnc12",
    "IC50": "75.1 µM"
  }
]

Provide IC50 values for the following items, in order.
1. C/C(=N\NC(=O)C(C)Oc1ccc([N+](=O)[O-])cc1)c1ccccn1 (stereo not drawn)
2. CNc1cc(Cl)c2nonc2c1[N+](=O)[O-]

3.43 µM
5.88 µM

* * *

tested_on: Apelin receptor (Homo sapiens) (UniProt P35414)
assay_details: potency against CXCR6 with APJ panel – cell-based, beta-arrestin, DiscoveRx, uHTS hits, dose response (AID 624129); call rule not given here
stated_conditions: CXCR6 beta-arrestin (DiscoveRx) antagonist cell assay, APJ, dose range 1
Response enum: yes for active, no for inactive

Use the examples below as a reference point.
[
  {
    "compound": "Nc1cc(Cl)c2nonc2c1[N+](=O)[O-]",
    "class_label": "yes"
  },
  {
    "compound": "C=C(CN(C)C)C(=O)c1ccc(C)cc1C",
    "class_label": "yes"
  },
  {
    "compound": "CCCCOc1ccc(C(=O)NNC(=S)NC(=O)CC)cc1",
    "class_label": "yes"
  },
  {
    "compound": "Cc1ccc2oc(/N=C(\\N)NC(=O)C(C)(C)C)nc2c1",
    "class_label": "yes"
  },
  {
    "compound": "Oc1c(Br)cc(Br)cc1C=NCc1ccccc1",
    "class_label": "yes"
  },
  {
    "compound": "CCO[C@@H]1OC(C(=O)N2CCN(Cc3ccccc3)CC2)=C[C@H](c2ccc(Br)cc2)[C@H]1CCCO",
    "class_label": "yes"
  },
  {
    "compound": "Cc1ccc(NC(=S)N/N=C/c2ccc([N+](=O)[O-])s2)cc1",
    "class_label": "yes"
  },
  {
    "compound": "Cc1[nH][nH]c(=O)c1C(c1c(C)[nH][nH]c1=O)c1cn(Cc2ccc(Cl)c(Cl)c2)c2ccccc12",
    "class_label": "yes"
  }
]

Record request — test call for CS(=O)(=O)c1sc(C#N)c2c1C(=O)CC(c1ccccc1)C2 (stereo not drawn)
yes

What did the test return for CCN1/C(=C\C=C2\C(=O)N(c3ccccc3)C(=S)N2C)Sc2ccccc21 ?
yes

Answer briefly: the call reported for COc1ccc(C(=O)N/N=C(\C)c2ccccn2)cc1OC in this assay.
yes
